Cited source for all entries: ChEMBL document CHEMBL5375992

Target of assay: Protein cereblon/Zinc finger protein Helios (Homo sapiens) (UniProt Q96SW2+Q9UKS7)
Sequence (Q96SW2 whole entry, looked up): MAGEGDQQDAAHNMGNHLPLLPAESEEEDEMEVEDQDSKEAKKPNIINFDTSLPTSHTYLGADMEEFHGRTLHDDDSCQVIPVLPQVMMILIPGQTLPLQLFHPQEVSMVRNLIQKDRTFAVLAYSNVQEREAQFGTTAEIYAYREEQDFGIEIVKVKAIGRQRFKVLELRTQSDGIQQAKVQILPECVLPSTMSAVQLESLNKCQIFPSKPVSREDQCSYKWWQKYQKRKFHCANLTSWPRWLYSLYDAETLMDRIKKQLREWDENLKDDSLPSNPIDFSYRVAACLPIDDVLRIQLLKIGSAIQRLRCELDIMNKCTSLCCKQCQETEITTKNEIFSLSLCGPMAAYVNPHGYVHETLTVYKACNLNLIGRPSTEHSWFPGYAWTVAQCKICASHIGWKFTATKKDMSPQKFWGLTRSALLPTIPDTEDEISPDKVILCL
Sequence (Q9UKS7 whole entry, looked up): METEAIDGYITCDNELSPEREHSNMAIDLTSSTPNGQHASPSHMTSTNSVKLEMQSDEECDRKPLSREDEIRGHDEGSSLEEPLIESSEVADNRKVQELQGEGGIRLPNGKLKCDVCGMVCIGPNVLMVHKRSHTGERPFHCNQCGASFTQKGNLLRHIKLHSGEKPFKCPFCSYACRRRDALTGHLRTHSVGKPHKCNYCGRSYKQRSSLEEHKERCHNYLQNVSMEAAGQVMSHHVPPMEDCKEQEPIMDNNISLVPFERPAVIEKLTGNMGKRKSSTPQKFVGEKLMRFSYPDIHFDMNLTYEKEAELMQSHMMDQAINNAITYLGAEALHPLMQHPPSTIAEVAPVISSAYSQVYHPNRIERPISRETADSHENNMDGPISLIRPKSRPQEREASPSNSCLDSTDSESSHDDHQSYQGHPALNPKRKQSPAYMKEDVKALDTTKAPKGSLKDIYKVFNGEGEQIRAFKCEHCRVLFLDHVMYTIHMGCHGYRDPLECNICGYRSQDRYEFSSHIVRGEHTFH
Assay comment: Protac activity at CRBN/IKZF2 (unknown origin) transfected in HEK293T cells at 100 nM incubated for 24 hrs by flow cytometry analysis relative to control
Type: cell-based
// reported Activity per item
Provide only the numeric value, understood in %.

Some solved cases for reference:
O=C1CCC(N2Cc3cc(NC(=O)c4ccc5cc(O)ccc5c4)ccc3C2=O)C(=O)N1 (stereo not given) :: 60
CCCCOc1ccc2cc(C(=O)Nc3ccc4c(c3)CN(C3CCC(=O)NC3=O)C4=O)ccc2c1 (stereo not given) :: 81
COc1ccc2c(c1)OCC(C(=O)Nc1ccc3c(c1)CN(C1CCC(=O)NC1=O)C3=O)=C2 (stereo not given) :: 57
Cc1ccc2c(c1)OCC(C(=O)Nc1ccc3c(c1)CN(C1CCC(=O)NC1=O)C3=O)=C2 (stereo not given) :: 73

Here is another compound to look at.
Task: Name the reported Activity value associated with the compound O=C1CCC(N2Cc3cc(NC(=O)c4ccc5c(c4)OCCO5)ccc3C2=O)C(=O)N1 (stereo not given)
Result: 38
